Assign protein stability index to each entry below.
B1: SFRS1 (parent)
chain: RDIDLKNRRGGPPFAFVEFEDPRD

# Variants of: B1
# protocol-description: protein stability index of a GFP-peptide fusion (GPS, HEK-293T) (PSI 1-6); higher = more stable;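 also: lentivirally expressed fusions sorted by FACS into six bins by GFP to DsRed ratio, PSI derived from sequencing read proportions per bin multiplied by bin number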
# test-settings: c terminus: a fixed tail appended
I only need the number, thanks.

So what's the measured protein stability index for this one? F14D
4.86

So what's the measured protein stability index for this one? E18A
2.18

So what's the measured protein stability index for this one? P13A
4.62

So what's the measured protein stability index for this one? L5Y
3.3

So what's the measured protein stability index for this one? G11V
3.89

So what's the measured protein stability index for this one? F14R
4.66
